Kindly supply the reported Kd values for the records listed here.
Target: T1, Acro SARS-CoV-2 (COVID-19) S1 protein (SARS-CoV-2, UniProt P0DTC2 16-685)
T1 construct: also called SARS-CoV-2 S1
Assay: SPR
State the result as a value with its unit after it.

query: Dear colleague, I am looking for the recorded Kd of the following binder: variant 6-37 (Fc fusion) VHH: EVQLVESGGGLVQPGGSLRLSCAASGHTFSTSWMGWFRQAPGKEREFVATINSLGGTNYADSVKGRFTISADNSKNTAYLQMNSLKPEDTAVYYCARVSSGDYGMDVWGQGTLVTVSS
result: 22.5 nM

query: Could you do the same for variant 6-1 (Fc fusion) VHH: EVQLVESGGGLVQPGGSLRLSCAASGRTFGNYNMGWFRQAPGKEREFVATINSLGGTSYADSVKGRFTISADNSKNTAYLQMNSLKPEDTAVYYCARVDYYMDVWGQGTLVTVSS , please?
result: 35.8 nM

query: Could you do the same for variant 6-103 (Fc fusion) VHH: EVQLVESGGGLVQPGGSLRLSCAASGRTSSPIAMGWFRQAPGKEREPVAVRWSDDYTYYADSVKGRFTISADNSKNTAYLQMNSLKPEDTAVYYCAKKLGGYYAFDIWGQGTLVTVSS , please?
result: 23.6 nM

query: Could you do the same for variant 6-18 (Fc fusion) VHH: EVQLVESGGGLVQPGGSLRLSCAASGLTFRNYAMGWFRQAPGKEREFIAGMMWSGGTTTYADSVKGRFTISADNSKNTAYLQMNSLKPEDTAVYYCAREGYYYDSSGYLNYFDYWGQGTLVTVSS , please?
result: 30.1 nM

# credit: patent US20210355194A1
